From: PubChem BioAssay AID463173

- System: Wild type
- Assay Remarks: S. aureus survival, RN4220 and DeltatarO strains – OD600, teichoic acid synthesis inhibitors, primary screen (AID 463173)
- Experimental Conditions: S. aureus RN4220 wild type/DeltatarO growth, OD600, 18 h, active compounds read low, screened at 18.75 µg/mL (by protocol)
In all, about 52,000 compounds went through this assay and about 1,700 (3.3%) were called active. The entries come from a sample that favours actives as a whole.
Reported survival values for a set of compounds
Only the number, expressed in %, is required.

// known answers, use as guide
[
  {
    "Chemical Smiles": "CCCS(=O)(=O)Nc1cc2c(cc1NCc1ccccc1)n(C)c(=O)n2C",
    "Units Text": "%",
    "survival": 82
  },
  {
    "Chemical Smiles": "Cc1ccc(NC(=O)C(=O)NCCc2csc3nc(-c4ccccc4C)nn23)cc1Cl",
    "Units Text": "%",
    "survival": 82
  }
]

Input: Reported survival for COC(=O)c1ccc(NC(=O)C(=O)NCCc2csc3nc(-c4ccccc4F)nn23)cc1 : what is it?
Output: 60

Input: Reported survival for CCC(=O)N1CCc2cc(S(=O)(=O)CCC(=O)N3CCN(c4ccccc4Cl)CC3)ccc21 : what is it?
Output: 78

Input: Reported survival for COc1cccc(-c2cc(C(=O)N3CCN(c4ccc(F)cc4)CC3)no2)c1 : what is it?
Output: 78
